Target: JAK1 (Homo sapiens (Human))
Sequence (P23458 whole entry, species assumed): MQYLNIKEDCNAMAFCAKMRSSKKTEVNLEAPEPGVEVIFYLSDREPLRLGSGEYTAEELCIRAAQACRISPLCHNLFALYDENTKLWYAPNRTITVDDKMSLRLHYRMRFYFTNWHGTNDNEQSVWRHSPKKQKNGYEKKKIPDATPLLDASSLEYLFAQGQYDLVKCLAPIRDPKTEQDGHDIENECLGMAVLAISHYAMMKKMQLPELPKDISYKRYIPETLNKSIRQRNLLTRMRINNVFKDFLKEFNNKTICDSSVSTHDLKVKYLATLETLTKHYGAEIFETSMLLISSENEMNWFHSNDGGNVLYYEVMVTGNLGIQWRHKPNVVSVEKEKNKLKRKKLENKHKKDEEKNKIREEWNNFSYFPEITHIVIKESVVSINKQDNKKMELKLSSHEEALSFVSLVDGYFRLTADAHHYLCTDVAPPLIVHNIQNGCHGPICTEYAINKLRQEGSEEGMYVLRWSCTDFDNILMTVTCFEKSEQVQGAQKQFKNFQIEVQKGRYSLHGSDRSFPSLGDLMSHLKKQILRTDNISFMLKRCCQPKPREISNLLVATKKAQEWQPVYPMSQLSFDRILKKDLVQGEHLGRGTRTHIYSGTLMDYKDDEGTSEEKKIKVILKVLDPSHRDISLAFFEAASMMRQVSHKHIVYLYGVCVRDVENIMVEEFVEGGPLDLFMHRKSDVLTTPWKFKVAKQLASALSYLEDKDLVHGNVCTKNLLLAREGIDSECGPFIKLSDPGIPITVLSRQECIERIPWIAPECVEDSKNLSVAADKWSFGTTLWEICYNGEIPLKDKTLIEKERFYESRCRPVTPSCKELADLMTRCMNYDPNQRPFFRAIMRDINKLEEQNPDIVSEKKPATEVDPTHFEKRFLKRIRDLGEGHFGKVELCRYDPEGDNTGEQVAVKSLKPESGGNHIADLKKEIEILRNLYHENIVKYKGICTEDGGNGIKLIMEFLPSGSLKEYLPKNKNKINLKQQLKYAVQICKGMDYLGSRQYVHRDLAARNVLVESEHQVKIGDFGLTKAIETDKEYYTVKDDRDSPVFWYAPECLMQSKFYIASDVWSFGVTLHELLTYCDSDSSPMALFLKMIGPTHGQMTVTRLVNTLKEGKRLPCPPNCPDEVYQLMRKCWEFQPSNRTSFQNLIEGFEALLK
recorded.endpoint: IC50

Worked examples, 4 compounds total:
{"compound": "Cc1cc(Nc2ncc(C)c(N3CC(CC#N)(N4CCN(CC5CC5)CC4)C3)n2)sn1", "result": "< 10 nM"}
{"compound": "Cc1cc(Nc2ncc(C)c(N3CC(CC#N)(N4CCCC(C)C4)C3)n2)sn1 (centres unmarked)", "result": "< 10 nM"}
{"compound": "Cc1cc(Nc2ncc(C)c(N3CC(CC#N)(N4CCN(C5CC5)CC4)C3)n2)sn1", "result": "< 10 nM"}
{"compound": "CCC1(NC(=O)c2cccc(F)c2)CN(c2nc(Nc3cnn(C)c3)ncc2C)C1 [E318C]", "result": "< 10 nM"}

Query :: Query: IC50; subject: Cc1cc(Nc2nccc(N3CC(CC#N)(N4CCN5CC6(CC6)C[C@H]5C4)C3)n2)sn1 [E82a]
Result :: < 50 nM
